# Tested on: P388 leukemia ip, CD2F1 mice, survival T/C
# method_description: NCI In Vivo Anticancer Drug Screen. Data for tumor model P388 Leukemia (intraperitoneal) in CD2F1 (CDF1) mice
# run_parameters: endpoint: median survival time; dose: 200.0 mg/kg/injection; schedule: Q01DX009 (ip); vehicle: saline with Tween-80; higher = longer survival
Inconclusive results and toxic doses are left out.
endpoint_label: T/C

Problem: If you can, please state the reported T/C value of `CSCCCNC(=O)c1csc(CCNC(=O)c2ccccc2)n1` .
Solution: 109 % of control

Problem: If you can, please state the reported T/C value of CC(C)(C)OC(=O)NC(Cc1cn(Cc2ccccc2)cn1)C(=O)O (stereo not given) .
Solution: 108 % of control

Problem: If you can, please state the reported T/C value of `O=[N+]([O-])c1cc(Cl)c(Cl)cc1Cl` .
Solution: 104 % of control

Problem: If you can, please state the reported T/C value of `Cc1[nH]c(=O)[nH]c(=O)c1CO` .
Solution: 101 % of control

Problem: If you can, please state the reported T/C value of COC(=O)C1(C)CCCC2(C)c3cc(OC)ccc3C(=O)C(Br)C12 (stereo not given) .
Solution: 112 % of control

Problem: If you can, please state the reported T/C value of `O=C([O-])CN(CCN(CC(=O)[O-])CC(=O)O)CC(=O)O.[Fe+5].[Na+]` .
Solution: 91 % of control

###

# System: P388 leukemia ip, CD2F1 mice, survival T/C
# method_description: NCI In Vivo Anticancer Drug Screen. Data for tumor model P388 Leukemia (intraperitoneal) in CD2F1 (CDF1) mice
# run_parameters: endpoint: median survival time; dose: 200.0 mg/kg/injection; schedule: Q01DX009 (ip); vehicle: saline with Tween-80; higher = longer survival
Inconclusive results and toxic doses are left out.
endpoint_label: T/C

INSERT INTO assay_data (molecule, val) VALUES
  ('CCOC(=O)CCC1CCCCC1=O (stereo not given)', '103 % of control'),
  ('O=C(/C=C\N(c1ccccc1)c1ccccc1)c1ccccc1', '94 % of control'),
  ('C[C@H]1C[C@@H]2[C@H]([C@@H](O)C[C@@]3(C)[C@H]2CC[C@]3(O)C(=O)CO)[C@@]2(C)C=CC(=O)C=C12', '97 % of control');

Problem: If you can, please state the reported T/C value of CC(=O)NC(C(=O)O)C(C)SCc1ccccc1 (stereo not given) .
Solution: 97 % of control

Problem: If you can, please state the reported T/C value of `O=C(NCCCl)Nc1ccccc1C(=O)O` .
Solution: 99 % of control

Problem: If you can, please state the reported T/C value of `COc1ccc(OC)c(NC(=O)N2CCCC2)c1` .
Solution: 96 % of control

Problem: If you can, please state the reported T/C value of `CCOc1ccc2nc3cc(N=Nc4c(C)c(CN(CC)CC)cc(C)c4O)ccc3c(N)c2c1` .
Solution: 106 % of control

Problem: If you can, please state the reported T/C value of `COc1ccc(/C=C(/C#N)c2ccc(Cl)cc2)cc1` .
Solution: 93 % of control

Problem: If you can, please state the reported T/C value of `CCCc1c(C)nc2scc(-c3ccccc3)n2c1=O` .
Solution: 99 % of control

Problem: If you can, please state the reported T/C value of `CCOC=C1C(=O)N(C)C(=O)N(C)C1=O` .
Solution: 108 % of control

Problem: If you can, please state the reported T/C value of `COn1cc(C(=O)O)c(=O)c2c3sc(=O)n(C)c3ccc21` .
Solution: 99 % of control

Problem: If you can, please state the reported T/C value of `O=C(O)c1ccccc1N=N/C(=N\Nc1ccccc1C(=O)O)c1ccnc2ccccc12` .
Solution: 103 % of control

Problem: If you can, please state the reported T/C value of ClCC1CSC(c2ccccc2)O1 (stereo not given) .
Solution: 101 % of control

Problem: If you can, please state the reported T/C value of `COc1ccc(/C=C2/SC(=S)N(Cc3ccco3)C2=O)cc1` .
Solution: 86 % of control

Problem: If you can, please state the reported T/C value of Nc1nc(N)nc(N)n1 (tested in a mixture with another compound) .
Solution: 88 % of control

Problem: If you can, please state the reported T/C value of `CN(C)[C@@H]1C(=O)C(C(=O)NCc2nc3[nH]cnc(=S)c3[nH]2)=C(O)[C@@]2(O)C(=O)C3=C(O)c4c(O)cccc4[C@@](C)(O)[C@H]3C[C@@H]12` .
Solution: 100 % of control

Problem: If you can, please state the reported T/C value of `Cn1cnc([N+](=O)[O-])c1S(N)(=O)=O` .
Solution: 123 % of control

Problem: If you can, please state the reported T/C value of `COc1ccccc1NC(CCN1CCCCC1)=NC(C)(C)C` .
Solution: 104 % of control

Problem: If you can, please state the reported T/C value of `O=C1/C(=C/c2ccc(O)c(O)c2)Cc2ccccc21` .
Solution: 103 % of control

Problem: If you can, please state the reported T/C value of CCOC(=O)CCC(NC(=O)c1ccc(NS(=O)(=O)c2ccc(C)cc2)cc1)C(=O)OCC (stereo not given) .
Solution: 99 % of control

Problem: If you can, please state the reported T/C value of COc1ccc(C2OCOCC2C)cc1 (stereo not given) .
Solution: 101 % of control

Problem: If you can, please state the reported T/C value of `O=C(O)c1c(Cl)c(Cl)c(Cl)c(Cl)c1Cl` .
Solution: 100 % of control

###

Examples of compounds with documented T/C follow.
# System: P388 leukemia ip, CD2F1 mice, survival T/C
# method_description: NCI In Vivo Anticancer Drug Screen. Data for tumor model P388 Leukemia (intraperitoneal) in CD2F1 (CDF1) mice
# run_parameters: endpoint: median survival time; dose: 120.0 mg/kg/injection; schedule: Q01DX005 (ip); vehicle: saline with Tween-80; higher = longer survival
Inconclusive results and toxic doses are left out.

Example compounds with recorded T/C:
INSERT INTO assay_data (compound, target_of_assay, val) VALUES
  ('COc1cc(C2c3cc4c(cc3OC(C)(OC)C2C(C)=O)OCO4)cc(OC)c1OC (configuration not stated)', 'P388 leukemia ip, CD2F1 mice, survival T/C', '94 % of control'),
  ('Oc1cc2c(cc1C(c1ccc(Cl)cc1)N1CCCCC1)OCO2 (configuration not stated)', 'P388 leukemia ip, CD2F1 mice, survival T/C', '118 % of control'),
  ('O=C(CCCCCCCC(=O)NO)NO', 'P388 leukemia ip, CD2F1 mice, survival T/C', '100 % of control'),
  ('COC(SC)(C(=O)O)c1cc(-c2c(Cl)cccc2Cl)no1 (configuration not stated)', 'P388 leukemia ip, CD2F1 mice, survival T/C', '93 % of control'),
  ('CN(C)c1ccc(/C=N/NC(=O)c2ccccc2N)cc1', 'P388 leukemia ip, CD2F1 mice, survival T/C', '100 % of control'),
  ('Nc1nnc(CCCCCCCc2nnc(N)o2)o1', 'P388 leukemia ip, CD2F1 mice, survival T/C', '99 % of control'),
  ('CCCc1[nH]nc(-c2n[nH]c(CCC)c2CC)c1CC', 'P388 leukemia ip, CD2F1 mice, survival T/C', '93 % of control'),
  ('COc1ccc(OC)c(NC(=O)CCCC(=O)C(C#N)c2ccc(CC#N)cc2)c1 (configuration not stated)', 'P388 leukemia ip, CD2F1 mice, survival T/C', '98 % of control');

Problem: If you can, please state the reported T/C value of `CNc1nc(Cl)cc2onc(C)c12` .
Solution: 100 % of control

Problem: If you can, please state the reported T/C value of `O=[N+]([O-])c1cn(CCCNc2c3ccccc3nc3ccccc23)cn1` .
Solution: 107 % of control

Problem: If you can, please state the reported T/C value of `CN1c2ccc(Br)c[c]2[Sn]2([c]3cc(Br)ccc31)[c]1cc(Br)ccc1N(C)c1ccc(Br)c[c]12` .
Solution: 98 % of control

Problem: If you can, please state the reported T/C value of `COC(=O)c1cc(-c2ccccc2)c2c(=O)n(-c3ccccc3)[nH]c2n1` .
Solution: 100 % of control

###

# System: P388 leukemia ip, CD2F1 mice, survival T/C
# method_description: NCI In Vivo Anticancer Drug Screen. Data for tumor model P388 Leukemia (intraperitoneal) in CD2F1 (CDF1) mice
# run_parameters: endpoint: median survival time; dose: 12.5 mg/kg/injection; schedule: Q01DX009 (ip); vehicle: distilled water + Tween-80; higher = longer survival
Inconclusive results and toxic doses are left out.
endpoint_label: T/C

INSERT INTO measurements (chemical_string, target_of_assay, val) VALUES
  ('CCOC(=O)Cc1cc2cc(OCC)ncc2cc1C', 'P388 leukemia ip, CD2F1 mice, survival T/C', '89 % of control'),
  ('Cc1ccc(S(=O)(=O)NN=C(C(=O)O)C(=O)O)cc1', 'P388 leukemia ip, CD2F1 mice, survival T/C', '101 % of control'),
  ('Cc1ccc(NC(=O)Nc2nccs2)cc1', 'P388 leukemia ip, CD2F1 mice, survival T/C', '101 % of control');

Switching to the query record.
Problem: What T/C appears in the records for this compound with P388 leukemia ip, CD2F1 mice, survival T/C? `CCOC(=O)c1nc(OCC)nc(OCC)c1C#CCO`
Solution: 95 % of control

Data credit: PubChem BioAssay AID330
